B1: LINE1-full (parent)
chain: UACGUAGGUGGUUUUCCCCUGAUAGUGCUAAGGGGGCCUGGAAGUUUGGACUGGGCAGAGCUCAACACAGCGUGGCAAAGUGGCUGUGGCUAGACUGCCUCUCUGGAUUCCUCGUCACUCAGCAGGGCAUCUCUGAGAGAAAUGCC

Variants of: B1
Assay: self-cleavage, relative activity (ratio to wild type); higher = more cleavage; in vitro, sequencing; the parent is a self-cleaving ribozyme
observation-type: self-cleavage
Format: numeric value only, no unit, no commentary.

Lookup: Quick one: self-cleavage of G10A U102C ?
Found: 1.39

Lookup: Quick one: self-cleavage of G55U U134G ?
Found: 0.15

Lookup: Quick one: self-cleavage of U12C A64G ?
Found: 0.28

Lookup: Quick one: self-cleavage of U45A U109A ?
Found: 0.94

Lookup: Quick one: self-cleavage of A57U G139U ?
Found: 0.11

Lookup: Quick one: self-cleavage of U104C A138G ?
Found: 1.87

Lookup: Quick one: self-cleavage of G35U A140G ?
Found: 1.21

Lookup: Quick one: self-cleavage of G35A A136U ?
Found: 1.1
